Tested on: 786-0 renal
test-summary: NCI tumour cell line growth inhibition, 48 h
In this section, each of the compounds is paired with its reported TGI.
Numbers only here, please. The scale is µM.

Here's what some known entries look like.
{"columns": ["compound", "TGI / µM"],
 "data": [
  ["O=C1CCc2ccc(O)c(c2)Oc2ccc(cc2)C(Sc2ccccc2)CCO1 (stereo not given)", 29.6],
  ["CCc1ccc(COC(=O)C2=C(C)NC(C)=C(C(=O)OCc3ccc(CC)cn3)C2C2=COCCO2)nc1", 69.4],
  ["COc1ccc2c(c1)/C(=C\\c1c(Cl)[nH]c3ccccc13)C(=O)N2", 17],
  ["CCCCCCCC/C=C/CCCCCCCC1=NC(C)(C)CN1CCO", 3.14]
]}

# context switch: different compound, same TGI
query: Name the recorded TGI for COc1ccc(/C=C2/SC(Nc3nc(-c4nc(NC5=NC(=O)/C(=C\c6ccc(OC)cc6)S5)sc4C)c(C)s3)=NC2=O)cc1 .
result: 4.18

Recorded values, source PubChem BioAssay (NCI).
